biological target: Raf-1 (c-Raf) / GST-MEK1 (Raf and/or Mek kinase); construct: Sf9 insect cell lysate containing full length 6his-tagged recombinant human c-Raf; fused on or other part: 6His tag on c-Raf; GST on MEK1; experiment: Raf/Mek kinase cascade assay; details: Table 4; read-out: Raf/MEK enzyme IC50
pIC50: −log10 of the molar value.
observation.type: pIC50

Reference set (2 entries):
CN1CCN(Cc2ccc(-c3cc4ncc(C#N)c(Nc5ccc(Sc6nccn6C)c(Cl)c5)c4s3)cc2)CC1 ... 8.35
Cn1ccnc1Sc1ccc(Nc2c(C#N)cnc3cc(-c4ccc(CN5CCOCC5)cc4)sc23)cc1Cl ... 7.39

I: CN(C)CC#Cc1cc2ncc(C#N)c(Nc3ccc(Sc4nccn4C)c(Cl)c3)c2s1
II: CCN(CC)Cc1ccc(-c2cc3ncc(C#N)c(Nc4ccc(Sc5nccn5C)c(Cl)c4)c3s2)cc1
Select one. Lower pIC50: I or II Provide the label of your selected option as the answer.
I
(I: 6.32, II: 8.25)

Every entry's value here was drawn from patent US7276519B2.
